Form field: melting point (one value per entry).

Solved entries (count: 8):
Reported melting point for `CS(=O)(=O)c1ccc(-c2cc(=O)n(Cc3ccc(F)cc3)nc2-c2ccc(F)cc2)cc1` was 150 to 151 °C

The value of melting point measured for the compound `CS(=O)(=O)c1ccc(-c2cc(=O)n(CC3CCC3)nc2-c2ccc(F)cc2)cc1` turned out to be 74 to 76 °C

melting point measured on `CS(=O)(=O)c1ccc(-c2cc(=O)n(CC3CC3)nc2-c2ccc(F)cc2)cc1` = 130 to 132 °C

Reported melting point for CC(c1ccc(F)cc1)n1nc(-c2ccc(F)cc2)c(-c2ccc(S(C)(=O)=O)cc2)cc1=O (centres unmarked) was 185 to 186 °C

For reference, reported melting point for `CS(=O)(=O)c1ccc(-c2cc(=O)n(CC3CCCC3)nc2-c2ccc(F)cc2)cc1` stands at 76 to 77 °C

The recorded melting point for `CS(=O)(=O)c1ccc(-c2cc(=O)n(C3CCCCC3)nc2-c2ccc(F)cc2)cc1` is 86 to 90 °C

Reported melting point for `CS(=O)(=O)c1ccc(-c2cc(=O)n(Cc3ccccc3)nc2-c2ccc(F)cc2)cc1` was 172 to 174 °C

// recorded melting point for `CCCCCn1nc(-c2ccc(F)cc2)c(-c2ccc(S(C)(=O)=O)cc2)cc1=O` : 65 to 67 °C

Continuing:
Query `CC#CCn1nc(-c2ccc(F)cc2)c(-c2ccc(S(C)(=O)=O)cc2)cc1=O` yields melting point of 81 to 82 °C

melting point in this record for `CS(=O)(=O)c1ccc(-c2cc(=O)n(C3CCCC3)nc2-c2ccc(F)cc2)cc1` : 191 to 192 °C

Record `CCCn1nc(-c2ccc(F)cc2)c(-c2ccc(S(C)(=O)=O)cc2)cc1=O` , field melting point: 155 to 157 °C

# credit: patent US6525053B1
